Assay: AUC in rat at 10 mg/kg, po by LC/MS/MS analysis
Type: ADME, organism-based
Details: in vivo
observed property: AUC (µM·h)
Express it in µM·h; write the number only.

Q: Identify measured AUC corresponding to COc1ccc2c(c1)C(=O)N(C[C@@]1(c3cc4ncccc4o3)NC(=O)NC1=O)C2.[Na+]
Ans: 10

---

Assay: Permeability in human Caco2 cells at pH 7.4
Assay type: ADME, cell-based
Settings: Caco-2, pH 7.4, read-out: permeability
observed property: Papp (×10⁻⁶ cm/s)
Express it in ×10⁻⁶ cm/s; write the number only.

Q: Identify measured Papp corresponding to COc1ccc2c(c1)C(=O)N(C[C@@]1(c3cc4ncccc4o3)NC(=O)NC1=O)C2
Ans: 1.2
